system: ATP; assay: switch fluorescence ratio, 500 uM ATP over buffer (Cy3 cluster intensity, sum of 5 cycles each) (fold (ratio)); higher = stronger signal-on switching upon ATP binding; sequences stand for … in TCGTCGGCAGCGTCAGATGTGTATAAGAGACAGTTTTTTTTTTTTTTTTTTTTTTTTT…TC; details: aptamer strand: ATP DNA aptamer (quencher-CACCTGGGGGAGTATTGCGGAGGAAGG + anchor), 100 nM annealed; ATP concentration: 500 uM;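 note: ATP exposure 15 min at 22 °C before imaging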
assayReadout: switch fluorescence ratio
Answers are plain numbers.

Notebook: pull reported switch fluorescence ratio for ATP, entry TTTGTTACTT
1.01

Entry to check: GATGCATGTT
0.995

Next up: TAGGAAAAAG
0.975

Same lookup for AGTATAATTT , please.
0.978

Try TTACTTGGGA next.
1

Look at each sequence and report its switch fluorescence ratio.
1. ATAGGCACAT
2. GTGATCTATA
3. CACTGAGCTG
4. CACTTGACGT
5. TAAGAGAAGT

[1.03, 0.99, 1.07, 1.21, 1.02]

Hello, the source for this data is the supplement of paper PMC10126150, in case you need it.
